System: foxtail, giant (giant foxtail, Setaria faberii)
Test: Test A preemergence, foxtail, giant
Assay type: in vivo
Details: 500 g ai/ha, 0 to 100 scale
Known Plant response rating, Foxtail, Giant of a selection of molecules
Please respond with just the number, no unit label.

O=C1NCC(/C=C/c2ccccc2F)C1C(=O)Nc1cccc(F)c1F (centres unmarked) :: 90

Plant response rating, Foxtail, Giant for O=C1NCC(/C=C/c2ccc(F)cc2)C1C(=O)Nc1cccc(F)c1F (centres unmarked) ?
70

---

Known Plant response rating, Barnyardgrass of a selection of compounds
Test system: barnyardgrass (Echinochloa crus-galli)
Assay: Test A preemergence, barnyardgrass
Type: in vivo
Details: 500 g ai/ha, 0 to 100 scale
Please respond with just the number, no unit label.

Before answering, review these 2 worked examples.
O=C1NCC(Cc2cccc(C(F)(F)F)c2)C1C(=O)Nc1cccc(F)c1F (centres unmarked) [Compound 11] :: 0
O=C1NCC(/C=C/c2cccc(F)c2)C1C(=O)Nc1ccccc1F (centres unmarked) [Compound 24] :: 70

Plant response rating, Barnyardgrass for O=C1NCC(/C=C/c2ccccc2)C1C(=O)Nc1ccccc1F (centres unmarked) [Compound 32] ?
60

Plant response rating, Barnyardgrass for Cc1cccc(C#CC2CNC(=O)C2C(=O)Nc2cccc(F)c2F)c1 (centres unmarked) [Compound 22] ?
80

Plant response rating, Barnyardgrass for O=C1NCC(/C=C/c2ccccc2F)C1C(=O)Nc1ccccc1F (centres unmarked) [Compound 34] ?
80

---

Test system: barnyardgrass (Echinochloa crus-galli)
Test: Test A preemergence, barnyardgrass
Assay type: in vivo
Conditions: 500 g ai/ha, 0 to 100 scale
Known Plant response rating, Barnyardgrass of a selection of molecules
Please respond with just the number, no unit label.

Before answering, review these 5 worked examples.
O=C1NCC(/C=C/c2ccc(F)cc2)C1C(=O)Nc1ccccc1F (stereo not drawn) :: 50
O=C1NCC(/C=C/c2ccc(F)cc2)C1C(=O)Nc1cccc(F)c1F (stereo not drawn) :: 70
Cc1cccc(C#CC2CNC(=O)C2C(=O)Nc2ccccc2F)c1 (stereo not drawn) :: 80
O=C1NCC(C#Cc2ccc(F)cc2)C1C(=O)Nc1ccccc1F (stereo not drawn) :: 50
O=C1NCC(/C=C/c2ccccc2)C1C(=O)Nc1cccc(F)c1F (stereo not drawn) :: 90

Plant response rating, Barnyardgrass for O=C1NCC(Cc2cccc(F)c2F)C1C(=O)Nc1cccc(F)c1F (stereo not drawn) ?
0

Plant response rating, Barnyardgrass for O=C(Nc1cccc(C(F)(F)F)c1)C1CNC(=O)C1C(=O)Nc1cccc(F)c1F (stereo not drawn) ?
30

Plant response rating, Barnyardgrass for O=C1NCC(Cc2cccc(F)c2F)C1C(=O)Nc1ccccc1C(F)(F)F (stereo not drawn) ?
0

Plant response rating, Barnyardgrass for O=C1NCC(C#Cc2cccc(Cl)c2)C1C(=O)Nc1ccccc1F (stereo not drawn) [Compound 25] ?
90

---

System: galium (catchweed bedstraw, Galium aparine)
Test: Test A postemergence, galium
Assay type: in vivo
Conditions: 500 g ai/ha, 0 to 100 scale
Text: Seeds of plant species selected from barnyardgrass (Echinochloa crus-galli), crabgrass (large crabgrass, Digitaria sanguinalis), kochia (Kochia scoparia), ragweed (common ragweed, Ambrosia elatior), morningglory (Ipomoea spp.), velvetleaf (Abutilon theophrasti), ryegrass, It. […] Treated plants and untreated controls were maintained in a greenhouse for approximately 10 d, after which time all treated plants were compared to untreated controls and visually evaluated for injury. […]
Value kind: Plant response rating, Galium
Please respond with just the number, no unit label.

O=C1NCC(/C=C/c2ccccc2)C1C(=O)Nc1cccc(F)c1F (stereo not shown) [Compound 33] :: 0

Give the reported Plant response rating, Galium for O=C(CCC1CNC(=O)C1C(=O)Nc1ccccc1F)Nc1ccc(F)cc1 (stereo not shown) [Compound 15] (system: galium (catchweed bedstraw, Galium aparine)).
0

Give the reported Plant response rating, Galium for O=C1NCC(CCc2ccccc2)C1C(=O)Nc1ccccc1F (stereo not shown) [Compound 20] (system: galium (catchweed bedstraw, Galium aparine)).
0

---

System: kochia (Kochia scoparia)
Assay: Test A postemergence, kochia
Format: in vivo
Settings: 500 g ai/ha, 0 to 100 scale
Value kind: Plant response rating, Kochia
Please respond with just the number, no unit label.

Before answering, review these 4 worked examples.
O=C1NCC(CCc2ccccc2)C1C(=O)Nc1ccccc1F (centres unmarked) :: 0
O=C1NCC(C#Cc2cccc(Cl)c2)C1C(=O)Nc1ccccc1F (centres unmarked) [Compound 25] :: 0
O=C1NCC(Cc2ccccc2C(F)(F)F)C1C(=O)Nc1cccc(F)c1F (centres unmarked) :: 30
O=C1NCC(C#Cc2ccc(F)cc2)C1C(=O)Nc1ccccc1F (centres unmarked) :: 0

Please turn your attention to the following entry.
Plant response rating, Kochia for O=C1NCC(/C=C/c2ccccc2)C1C(=O)Nc1ccccc1F (centres unmarked) ?
0

---

Test system: ducksalad (Heteranthera limosa)
Assay: Test B flooded paddy test, ducksalad
Type: in vivo
Details: Flood, 250 g ai/ha; scale of 0 to 100 where 0 is no effect and 100 is complete control; 13 to 15 d
Quick rule for you: Plant response rating, Ducksalad at 80 or higher means YES, lower means NO.

Before answering, review these 3 worked examples.
O=C1NCC(C#Cc2ccc(F)cc2)C1C(=O)Nc1cccc(F)c1F (stereo not drawn) :: NO
O=C1NCC(CCc2ccccc2)C1C(=O)Nc1cccc(F)c1F (stereo not drawn) :: NO
O=C1NCC(C#Cc2ccc(F)cc2)C1C(=O)Nc1ccccc1F (stereo not drawn) :: NO

Hi team, for O=C1NCC(/C=C/c2ccccc2)C1C(=O)Nc1cccc(F)c1F (stereo not drawn) , is the recorded Plant response rating, Ducksalad at or above 80?
YES

Hi team, for O=C1NCC(/C=C/c2cccc(F)c2)C1C(=O)Nc1ccccc1F (stereo not drawn) , is the recorded Plant response rating, Ducksalad at or above 80?
YES

Hi team, for O=C1NCC(/C=C/c2ccccc2F)C1C(=O)Nc1cccc(F)c1F (stereo not drawn) , is the recorded Plant response rating, Ducksalad at or above 80?
YES

Hi team, for O=C1NCC(Cc2ccc(F)cc2)C1C(=O)Nc1cccc(F)c1F (stereo not drawn) , is the recorded Plant response rating, Ducksalad at or above 80?
NO

Hi team, for O=C1NCC(C#Cc2cccc(Cl)c2)C1C(=O)Nc1ccccc1F (stereo not drawn) [Compound 29] , is the recorded Plant response rating, Ducksalad at or above 80?
NO

Hi team, for O=C1NCC(CCc2ccccc2)C1C(=O)Nc1ccccc1F (stereo not drawn) , is the recorded Plant response rating, Ducksalad at or above 80?
NO

Hi team, for O=C1NCC(C#Cc2cccc(Cl)c2)C1C(=O)Nc1ccccc1F (stereo not drawn) [Compound 25] , is the recorded Plant response rating, Ducksalad at or above 80?
YES

Hi team, for O=C1NCC(C#Cc2cccc(Cl)c2)C1C(=O)Nc1ccc(F)c(F)c1F (stereo not drawn) , is the recorded Plant response rating, Ducksalad at or above 80?
NO

---

System: foxtail, giant (giant foxtail, Setaria faberii)
Assay: Test A preemergence, foxtail, giant
Format: in vivo
Conditions: 500 g ai/ha, 0 to 100 scale
Value kind: Plant response rating, Foxtail, Giant
Please respond with just the number, no unit label.

O=C1NCC(C#Cc2ccc(F)cc2)C1C(=O)Nc1ccccc1F (stereo not drawn) :: 20
O=C1NCC(C#Cc2ccc(F)cc2)C1C(=O)Nc1cccc(F)c1F (stereo not drawn) :: 90
Cc1cccc(C#CC2CNC(=O)C2C(=O)Nc2ccccc2F)c1 (stereo not drawn) :: 0
Cc1cccc(C#CC2CNC(=O)C2C(=O)Nc2cccc(F)c2F)c1 (stereo not drawn) :: 70
O=C1NCC(C#Cc2cccc(Cl)c2)C1C(=O)Nc1ccc(F)c(F)c1F (stereo not drawn) :: 70

Plant response rating, Foxtail, Giant for O=C1NCC(Cc2ccc(F)c(F)c2)C1C(=O)Nc1cccc(F)c1F (stereo not drawn) ?
60

Plant response rating, Foxtail, Giant for O=C(Nc1cccc(C(F)(F)F)c1)C1CNC(=O)C1C(=O)Nc1cccc(F)c1F (stereo not drawn) ?
60

---

Tested on: galium (catchweed bedstraw, Galium aparine)
Test: Test A postemergence, galium
Assay type: in vivo
Conditions: 500 g ai/ha, 0 to 100 scale
Description: Seeds of plant species selected from barnyardgrass (Echinochloa crus-galli), crabgrass (large crabgrass, Digitaria sanguinalis), kochia (Kochia scoparia), ragweed (common ragweed, Ambrosia elatior), morningglory (Ipomoea spp.), velvetleaf (Abutilon theophrasti), ryegrass, It. […] Treated plants and untreated controls were maintained in a greenhouse for approximately 10 d, after which time all treated plants were compared to untreated controls and visually evaluated for injury. […]
Known Plant response rating, Galium of a selection of molecules
Please respond with just the number, no unit label.

O=C1NCC(/C=C/c2cccc(F)c2)C1C(=O)Nc1ccccc1F (stereo not shown) :: 0

Plant response rating, Galium for O=C1NCC(/C=C/c2ccccc2F)C1C(=O)Nc1cccc(F)c1F (stereo not shown) ?
20

Plant response rating, Galium for O=C1NCC(C#Cc2cccc(Cl)c2)C1C(=O)Nc1ccccc1F (stereo not shown) [Compound 25] ?
60

Plant response rating, Galium for O=C1NCC(Cc2cccc(F)c2F)C1C(=O)Nc1cccc(F)c1F (stereo not shown) ?
0

Plant response rating, Galium for Cc1cccc(C#CC2CNC(=O)C2C(=O)Nc2cccc(F)c2F)c1 (stereo not shown) ?
20

Plant response rating, Galium for O=C1NCC(CCc2ccccc2)C1C(=O)Nc1cccc(F)c1F (stereo not shown) ?
0

Plant response rating, Galium for O=C1NCC(Cc2ccc(C(F)(F)F)cc2)C1C(=O)Nc1ccccc1C(F)(F)F (stereo not shown) ?
0
